# credit: PubChem BioAssay AID743167

Experimental details: Extended Characterization of HPGD Inhibitors: PGE2 Assay in A549 Cells
Conditions: PGE2 HTRF level, 16 h
Results filed as inconclusive are left out. Calls of active or inactive are those of the source. Calls come from the whole dose curve; as a rule, active = well fitted activation curve with a large enough effect; inconclusive = small, poorly fitted or top-dose-only effect; inactive = flat fitted curve, though single readings scatter.

{"Smiles data": "CCOC(=O)c1ccc(-n2cnc3cc(C(=O)N4CCCCC4)ccc32)cc1", "Potency": "1.87 µM (active)"}
{"Smiles data": "COc1ccc(-n2cnc3cc(C(=O)N4CCCCC4)ccc32)cc1", "Potency": "0.662 µM (active)"}
{"Smiles data": "Brc1cnc2nc(SCc3ccccn3)[nH]c2c1", "Potency": "5.9 µM (active)"}
{"Smiles data": "Clc1ccc(CSc2nc3ncc(Br)cc3[nH]2)cc1", "Potency": "16.6 µM (active)"}
{"Smiles data": "CN1CC[C@@H](c2c(O)cc(O)c3c(=O)cc(-c4ccccc4Cl)oc23)[C@@H](O)C1", "Potency": "3.32 µM (active)"}
{"Smiles data": "Brc1cnc2nc(SCc3cccnc3)[nH]c2c1", "Potency": "8.33 µM (active)"}
{"Smiles data": "Cc1cccc(-n2cnc3cc(C(=O)N4CCCCCC4)ccc32)c1", "Potency": "2.96 µM (active)"}
{"Smiles data": "Brc1cnc2nc(SCc3ccncc3)[nH]c2c1", "Potency": "0.833 µM (active)"}
{"Smiles data": "CCCCn1cnc2cc(C(=O)N3CCCCC3)ccc21", "Potency": "2.96 µM (active)"}
{"Smiles data": "CCCCC[C@H](O)/C=C/[C@H]1[C@H](O)CC(=O)[C@@H]1C/C=C\\CCCC(=O)O", "Potency": "0.148 µM (active)"}
{"Smiles data": "Cc1ccc(-n2cnc3cc(C(=O)N4CCCCC4)ccc32)cc1", "Potency": "0.469 µM (active)"}

----------
Experimental details: Extended Characterization of HPGD Inhibitors: PGE2 Assay in A549 Cells
Conditions: PGE2 HTRF level, 16 h
Records with an inconclusive call do not appear. Calls of active or inactive are those of the source. Calls follow the shape of the dose curve; as a rule, active = well fitted activation curve with a large enough effect; inconclusive = small, poorly fitted or top-dose-only effect; inactive = flat fitted curve, though single readings scatter.
Below: a set of entries, each annotated with reported Potency.

{"Compound": "CC(C)(C)c1cccc(-n2cnc3cc(C(=O)N4CCCCC4)ccc32)c1", "Potency": "18700 nM (active)"}
{"Compound": "Cc1cccc(-n2cnc3cc(C(=O)N4CCCC(C(F)(F)F)C4)ccc32)c1 (stereo not given)", "Potency": "1320 nM (active)"}
{"Compound": "O=C(c1ccc2c(c1)ncn2-c1cccc(C(F)(F)F)c1)N1CCCCC1", "Potency": "2640 nM (active)"}
{"Compound": "Cc1cc(-c2nnc3n2CCCCC3)c(C)n1-c1ccc(C(F)(F)F)cc1", "Potency": "833 nM (active)"}
{"Compound": "N#Cc1cccc(CSc2nc3ncc(Br)cc3[nH]2)c1", "Potency": "7430 nM (active)"}

----------
Experimental details: Extended Characterization of HPGD Inhibitors: PGE2 Assay in A549 Cells
Conditions: PGE2 HTRF level, 16 h
Results filed as inconclusive are left out. Activity calls are given as the source filed them. The call rests on the fitted dose curve; in most records, active means well fitted activation curve with a large enough effect; inconclusive means small, poorly fitted or top-dose-only effect; inactive means flat fitted curve, though single readings scatter.

{"Smiles data": "CC(C)(C)n1cnc2cc(C(=O)N3CCCCC3)ccc21", "Potency": "2.09 µM (active)"}
{"Smiles data": "O=[N+]([O-])c1ccccc1CSc1nc2ncc(Br)cc2[nH]1", "Potency": "0.148 µM (active)"}
{"Smiles data": "Cc1cccc(-n2cnc3cc(C(=O)N4CCCC(C)(C)C4)ccc32)c1", "Potency": "0.743 µM (active)"}
{"Smiles data": "COc1ccc(CSc2nc3ncc(Br)cc3[nH]2)cc1F", "Potency": "7.43 µM (active)"}
